# protocol-text: reduced SW480 viability measured with CellTiter-Glo, NPC library, primary (AID 1117343)
# measurement-parameters: CellTiter-Glo luminescence; at 20 µM (top of the series)
Active and inactive are the calls of the source.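 Rule for the calls: active = compounds that lower viability of the colon cancer cells in the luminescence readout, with no numeric limit stated; inactive = the rest.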
Possible outcomes: active, inactive

In [3]: df
Out[3]:
                                    molecule  class_assignment
 0                               Cc1cn[nH]c1          inactive
 1  COc1cc2c(Nc3ccc(Br)cc3F)ncnc2cc1OCC1CCN(C)CC1          inactive
 2  O=C1OC(c2ccc(O)cc2)(c2ccc(O)cc2)c2ccccc21            active
 3  C[C@]12CCC(=O)C=C1C=C[C@@H]1[C@@H]2CC[C@@]2(C)[C@H]1CC[C@@]21CCC(=O)O1            active
 4  CC(=O)OCC(=O)[C@@]1(O)[C@H](OC(C)=O)C[C@H]2[C@@H]3CCC4=CC(=O)C=C[C@]4(C)[C@@]3(F)[C@@H](O)C[C@@]21C          inactive
 5    Cc1ccccc1OCC(O)CO (stereo unspecified)          inactive
 6     CCn1cc(C(=O)O)c(=O)c2cnc(N3CCCC3)nc21          inactive
 7  Cc1nc2n(c(=O)c1CCN1CCC(c3noc4cc(F)ccc34)CC1)CCCC2          inactive
 8              Cc1c(Cl)cccc1Nc1ccccc1C(=O)O            active
 9                  O=NN(CCCl)C(=O)NC1CCCCC1            active
10  CC(C)NCC(O)COc1ccc(COCCOC(C)C)cc1 (stereo unspecified)          inactive

====

# protocol-text: drug combination growth inhibition, ovarian cancer – cell-based, oncology-focused library, rucaparib conditional, profiling panel (AID 1508598)
# measurement-parameters: patient-derived ovarian cancer cells, CellTiter-Glo viability, 144 h; at 5 µM; OCI-P5x cells; without rucaparib
Calls of active or inactive are those of the source.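 The calls were made as follows: active = normalized viability below 100% at a tested concentration; inactive = the rest.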
Possible outcomes: active, inactive

In [3]: df
Out[3]:
                                   compound  class_assignment
0  CC(c1cc2ccccc2s1)N(O)C(N)=O (stereo not drawn)          inactive
1  COc1ccccc1OCC(O)CN1CCN(CC(=O)Nc2c(C)cccc2C)CC1 (stereo not drawn)            active
2  COc1cc2c(Nc3ccc(Br)cc3F)ncnc2cc1OCC1CCN(C)CC1            active
3   Cc1nc(-c2ccc(OCC(C)C)c(C#N)c2)sc1C(=O)O          inactive
4  Cc1nc2ccc(CN(C)c3ccc(C(=O)N[C@@H](CCC(=O)O)C(=O)O)s3)cc2c(=O)[nH]1          inactive
5  O=c1c(O)c(-c2ccc(O)c(O)c2)oc2cc(O)cc(O)c12          inactive
6                                  NC(=O)NO          inactive
7  CN(Cc1cnc2nc(N)nc(N)c2n1)c1ccc(C(=O)N[C@@H](CCC(=O)O)C(=O)O)cc1            active

====

# protocol-text: growth inhibition of GSK3B-pretreated HCT116 cells – cell-based, CellTiter-Glo, 0.2 to 20 µM (AID 1117336)
# measurement-parameters: HCT116 viability after GSK3B inhibitor, at 20 µM, stronger effect = higher value
Mark T for viability decrease under 10%, F if at or over.

>>> print(df.to_string())
                               smiles_entry  class_assignment
0  C[C@]12CCC(=O)C=C1CC[C@@H]1[C@@H]2[C@@H](O)C[C@@]2(C)[C@H]1CC[C@]2(O)C(=O)COP(=O)(O)O                 T
1  CCOC(=O)[C@H](CCc1ccccc1)N[C@@H](C)C(=O)N1[C@H](C(=O)O)C[C@@H]2CCC[C@@H]21                 F
2            COc1cc(C)c(Cc2cnc(N)nc2N)cc1OC                 T
3  COC(=O)[C@H]1[C@H]2C[C@@H]3c4[nH]c5cc(OC)ccc5c4CCN3C[C@H]2C[C@@H](OC(=O)c2cc(OC)c(OC)c(OC)c2)[C@@H]1OC                 F
4                               OCc1ccccc1O                 T
5               O=c1c(-c2ccccc2)c1-c1ccccc1                 F
6  CC(=O)Oc1ccc(C(c2ccc(OC(C)=O)cc2)c2ccccn2)cc1                 F
7          O=C(CCNNC(=O)c1ccncc1)NCc1ccccc1                 F
8  CC(C)c1nc(CN(C)C(=O)N[C@H](C(=O)N[C@@H](Cc2ccccc2)C[C@H](O)[C@H](Cc2ccccc2)NC(=O)OCc2cncs2)C(C)C)cs1                 F
